pIC50: −log10 of the molar value.
Across several studies, molecules have been characterized by their pIC50 on RAC-beta serine/threonine-protein kinase (Homo sapiens); a selection follows.
Sequence (P31751 whole entry): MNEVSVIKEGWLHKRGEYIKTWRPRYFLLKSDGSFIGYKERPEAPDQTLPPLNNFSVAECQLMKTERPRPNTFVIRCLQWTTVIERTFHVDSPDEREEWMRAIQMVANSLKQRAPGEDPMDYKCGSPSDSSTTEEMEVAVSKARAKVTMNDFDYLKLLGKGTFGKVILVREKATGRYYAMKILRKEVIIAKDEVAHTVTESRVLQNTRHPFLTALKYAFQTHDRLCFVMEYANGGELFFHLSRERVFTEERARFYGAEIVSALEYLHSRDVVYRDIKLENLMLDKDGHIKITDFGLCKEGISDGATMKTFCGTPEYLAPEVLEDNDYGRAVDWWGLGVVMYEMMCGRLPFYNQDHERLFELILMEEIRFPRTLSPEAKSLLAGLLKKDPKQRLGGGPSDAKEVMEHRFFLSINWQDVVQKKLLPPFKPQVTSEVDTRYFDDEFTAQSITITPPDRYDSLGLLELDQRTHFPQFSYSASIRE
Assay Metric: pIC50

[[record]]
molecule = "Nc1ncnc2c1cnn2C1CCN(Cc2ccc(-c3ncc(-c4ncon4)cc3-c3ccccc3)cc2)CC1"
assay_metric = "pIC50"
result = 6.92

[[record]]
molecule = "Cc1ccc2[nH]c(=O)c(C(=O)/C=C/c3nc4ccccc4[nH]3)c(-c3ccccc3)c2c1"
assay_metric = "pIC50"
result = 5.79

[[record]]
molecule = "Nc1ncnc2c1cnn2C1CCN(Cc2ccc(-c3ncc(-c4nccs4)cc3-c3ccccc3)cc2)CC1"
assay_metric = "pIC50"
result = 7.19


I: Nc1ncnc2c1cnn2C1CCN(Cc2ccc(-c3ncc(-c4nnc[nH]4)cc3-c3ccccc3)cc2)CC1
II: Nc1nnc(-c2cnc(-c3ccc(CN4CCC(c5cc(-c6ccncc6)[nH]n5)CC4)cc3)c(-c3ccccc3)c2)s1
III: Nc1nnc(-c2cnc(-c3ccc(CN4CCC(n5ncc6c(N)ncnc65)CC4)cc3)c(-c3ccccc3)c2)s1
IV: CNCC(c1ccc(Cl)cc1)c1ccc(-c2ncnc3nc[nH]c23)cc1 (stereo not given)
Task item: Sort (4 molecules) by pIC50: min first. Enter labels, ranked according to the request.
Reply: I, II, III, IV
